Assignment: determine reported inhibition at 10 µM for the given compounds.
test system: SF-268; test: NCI-60 one-dose SRB screen (CNS Cancer); format: cell-based; conditions: Homo sapiens, single dose 10 µM, 48 h, read-out: Growth inhibition percent (GI %)

Query block: Param readout = inhibition at 10 µM; param system = SF-268; param query = CCOC(=O)c1ccc(NC(=O)COC(=O)c2cn(-c3ccc(S(N)(=O)=O)cc3)nc2-c2ccccc2)cc1 ; response: value
Result block: 52.2%

Query block: Param readout = inhibition at 10 µM; param system = SF-268; param query = COc1ccc(-c2nn(-c3ccc(S(N)(=O)=O)cc3)cc2C(=O)NNC(N)=S)cc1 ; response: value
Result block: < 5%

Query block: Param readout = inhibition at 10 µM; param system = SF-268; param query = NS(=O)(=O)c1ccc(NC(=O)COC(=O)c2cn(-c3ccc(S(N)(=O)=O)cc3)nc2-c2ccccc2)cc1 ; response: value
Result block: < 5%

Query block: Param readout = inhibition at 10 µM; param system = SF-268; param query = Cc1ccc(-c2nn(-c3ccc(S(N)(=O)=O)cc3)cc2-c2nnc(N)s2)cc1 ; response: value
Result block: < 5%

Query block: Param readout = inhibition at 10 µM; param system = SF-268; param query = Cc1ccc(-c2nn(-c3ccc(S(N)(=O)=O)cc3)cc2C(=O)NNC(N)=S)cc1 ; response: value
Result block: < 5%

Query block: Param readout = inhibition at 10 µM; param system = SF-268; param query = CCOC(=O)c1ccc(NC(=O)COC(=O)c2cn(-c3ccc(S(N)(=O)=O)cc3)nc2-c2ccc(Br)cc2)cc1 ; response: value
Result block: 64.1%

###

test system: SNB-19; assay: NCI-60 one-dose SRB screen (CNS Cancer); format: cell-based; settings: Homo sapiens, single dose 10 µM, 48 h, read-out: Growth inhibition percent (GI %)
Measured Property: inhibition at 10 µM

Query block: I am curious: what inhibition at 10 µM value has been reported for Cc1ccc(-c2nn(-c3ccc(S(N)(=O)=O)cc3)cc2-c2n[nH]c(=S)[nH]2)cc1 ?
Result block: 13%

Query block: I am curious: what inhibition at 10 µM value has been reported for NC(=S)NNC(=O)c1cn(-c2ccc(S(N)(=O)=O)cc2)nc1-c1ccc(Br)cc1 ?
Result block: < 5%

Query block: I am curious: what inhibition at 10 µM value has been reported for NC(=S)NNC(=O)c1cn(-c2ccc(S(N)(=O)=O)cc2)nc1-c1ccccc1 ?
Result block: < 5%

Query block: I am curious: what inhibition at 10 µM value has been reported for COc1ccc(-c2nn(-c3ccc(S(N)(=O)=O)cc3)cc2C(=O)OCC(=O)Nc2nnc(S(N)(=O)=O)s2)cc1 ?
Result block: < 5%

Query block: I am curious: what inhibition at 10 µM value has been reported for NS(=O)(=O)c1ccc(NC(=O)COC(=O)c2cn(-c3ccc(S(N)(=O)=O)cc3)nc2-c2ccccc2)cc1 ?
Result block: < 5%

Query block: I am curious: what inhibition at 10 µM value has been reported for CCOC(=O)c1ccc(NC(=O)COC(=O)c2cn(-c3ccc(S(N)(=O)=O)cc3)nc2-c2ccc(C)cc2)cc1 ?
Result block: 48.4%

Query block: I am curious: what inhibition at 10 µM value has been reported for COc1ccc(-c2nn(-c3ccc(S(N)(=O)=O)cc3)cc2C(=O)NNC(N)=S)cc1 ?
Result block: < 5%

###

Assignment: determine reported inhibition at 10 µM for the given molecules.
system: MALME-3M; assay: NCI-60 one-dose SRB screen (Melanoma); type: cell-based; conditions: Homo sapiens, single dose 10 µM, 48 h, read-out: Growth inhibition percent (GI %)
A number alone suffices; assume %.

Query block: I am curious: what inhibition at 10 µM value has been reported for NS(=O)(=O)c1ccc(NC(=O)COC(=O)c2cn(-c3ccc(S(N)(=O)=O)cc3)nc2-c2ccccc2)cc1 ?
Result block: 8.55

Query block: I am curious: what inhibition at 10 µM value has been reported for Cc1ccc(-c2nn(-c3ccc(S(N)(=O)=O)cc3)cc2C(=O)OCC(=O)Nc2nnc(S(N)(=O)=O)s2)cc1 ?
Result block: 10.9

Query block: I am curious: what inhibition at 10 µM value has been reported for CCOC(=O)c1ccc(NC(=O)COC(=O)c2cn(-c3ccc(S(N)(=O)=O)cc3)nc2-c2ccc(C)cc2)cc1 ?
Result block: 35.5

Query block: I am curious: what inhibition at 10 µM value has been reported for CCOC(=O)c1ccc(NC(=O)COC(=O)c2cn(-c3ccc(S(N)(=O)=O)cc3)nc2-c2ccc(Br)cc2)cc1 ?
Result block: 46.1

Query block: I am curious: what inhibition at 10 µM value has been reported for CCOC(=O)c1ccc(NC(=O)COC(=O)c2cn(-c3ccc(S(N)(=O)=O)cc3)nc2-c2ccccc2)cc1 ?
Result block: 79.1

Query block: I am curious: what inhibition at 10 µM value has been reported for NC(=S)NNC(=O)c1cn(-c2ccc(S(N)(=O)=O)cc2)nc1-c1ccc(Br)cc1 ?
Result block: 10.9

Query block: I am curious: what inhibition at 10 µM value has been reported for COc1ccc(-c2nn(-c3ccc(S(N)(=O)=O)cc3)cc2C(=O)OCC(=O)Nc2nnc(S(N)(=O)=O)s2)cc1 ?
Result block: 5.67

Query block: I am curious: what inhibition at 10 µM value has been reported for CCOC(=O)c1ccc(NC(=O)COC(=O)c2cn(-c3ccc(S(N)(=O)=O)cc3)nc2-c2ccc(OC)cc2)cc1 ?
Result block: 21

###

test system: MCF-7; assay: NCI-60 one-dose SRB screen (Breast Cancer); assay type: cell-based; settings: Homo sapiens, MCF7, single dose 10 µM, 48 h, read-out: Growth inhibition percent (GI %)
Assignment: determine reported inhibition at 10 µM for the given compounds.
A number alone suffices; assume %.

Query block: I am curious: what inhibition at 10 µM value has been reported for CCOC(=O)c1ccc(NC(=O)COC(=O)c2cn(-c3ccc(S(N)(=O)=O)cc3)nc2-c2ccc(Br)cc2)cc1 [Compound 5d] ?
Result block: 91

Query block: I am curious: what inhibition at 10 µM value has been reported for Cc1ccc(-c2nn(-c3ccc(S(N)(=O)=O)cc3)cc2-c2n[nH]c(=S)[nH]2)cc1 [Compound 11] ?
Result block: 6.49

###

system: U251; assay: NCI-60 one-dose SRB screen (CNS Cancer); type: cell-based; settings: Homo sapiens, U-251, single dose 10 µM, 48 h, read-out: Growth inhibition percent (GI %)
Assignment: determine reported inhibition at 10 µM for the given molecules.
A number alone suffices; assume %.

Query block: I am curious: what inhibition at 10 µM value has been reported for Cc1ccc(-c2nn(-c3ccc(S(N)(=O)=O)cc3)cc2-c2nnc(N)s2)cc1 [Compound 10] ?
Result block: 9.42

Query block: I am curious: what inhibition at 10 µM value has been reported for NS(=O)(=O)c1ccc(NC(=O)COC(=O)c2cn(-c3ccc(S(N)(=O)=O)cc3)nc2-c2ccc(Br)cc2)cc1 [Compound 4d] ?
Result block: 25

Query block: I am curious: what inhibition at 10 µM value has been reported for CCOC(=O)c1ccc(NC(=O)COC(=O)c2cn(-c3ccc(S(N)(=O)=O)cc3)nc2-c2ccc(OC)cc2)cc1 [Compound 5c] ?
Result block: 34.3

###

test system: HCT-116; assay: NCI-60 one-dose SRB screen (Colon Cancer); assay type: cell-based; conditions: Homo sapiens, single dose 10 µM, 48 h, read-out: Growth inhibition percent (GI %)
Assignment: determine reported inhibition at 10 µM for the given compounds.

Query block: I am curious: what inhibition at 10 µM value has been reported for Cc1ccc(-c2nn(-c3ccc(S(N)(=O)=O)cc3)cc2C(=O)NNC(N)=S)cc1 [Compound 9b] ?
Result block: < 5%

Query block: I am curious: what inhibition at 10 µM value has been reported for CCOC(=O)c1ccc(NC(=O)COC(=O)c2cn(-c3ccc(S(N)(=O)=O)cc3)nc2-c2ccc(Br)cc2)cc1 [Compound 5d] ?
Result block: 73.6%

Query block: I am curious: what inhibition at 10 µM value has been reported for CS(=O)(=O)c1ccc(-c2nn(-c3ccc(S(N)(=O)=O)cc3)cc2C(=O)OCC(=O)Nc2ccc(S(N)(=O)=O)cc2)cc1 [Compound 4e] ?
Result block: < 5%

Query block: I am curious: what inhibition at 10 µM value has been reported for COc1ccc(-c2nn(-c3ccc(S(N)(=O)=O)cc3)cc2C(=O)NNC(N)=S)cc1 [Compound 9c] ?
Result block: < 5%

Query block: I am curious: what inhibition at 10 µM value has been reported for CCOC(=O)c1ccc(NC(=O)COC(=O)c2cn(-c3ccc(S(N)(=O)=O)cc3)nc2-c2ccc(S(C)(=O)=O)cc2)cc1 [Compound 5e] ?
Result block: < 5%

Query block: I am curious: what inhibition at 10 µM value has been reported for CCOC(=O)c1ccc(NC(=O)COC(=O)c2cn(-c3ccc(S(N)(=O)=O)cc3)nc2-c2ccc(OC)cc2)cc1 [Compound 5c] ?
Result block: 35.2%

Query block: I am curious: what inhibition at 10 µM value has been reported for NS(=O)(=O)c1ccc(-n2cc(C(=O)OCC(=O)Nc3nnc(S(N)(=O)=O)s3)c(-c3ccccc3)n2)cc1 [Compound 6a] ?
Result block: < 5%

Query block: I am curious: what inhibition at 10 µM value has been reported for Cc1ccc(-c2nn(-c3ccc(S(N)(=O)=O)cc3)cc2C(=O)OCC(=O)Nc2nnc(S(N)(=O)=O)s2)cc1 [Compound 6b] ?
Result block: < 5%

Query block: I am curious: what inhibition at 10 µM value has been reported for Cc1ccc(-c2nn(-c3ccc(S(N)(=O)=O)cc3)cc2C(=O)OCC(=O)Nc2ccc(S(N)(=O)=O)cc2)cc1 [Compound 4b] ?
Result block: < 5%

Query block: I am curious: what inhibition at 10 µM value has been reported for NC(=S)NNC(=O)c1cn(-c2ccc(S(N)(=O)=O)cc2)nc1-c1ccc(Br)cc1 [Compound 9d] ?
Result block: < 5%

Query block: I am curious: what inhibition at 10 µM value has been reported for NS(=O)(=O)c1ccc(NC(=O)COC(=O)c2cn(-c3ccc(S(N)(=O)=O)cc3)nc2-c2ccc(Br)cc2)cc1 [Compound 4d] ?
Result block: 84.6%

Query block: I am curious: what inhibition at 10 µM value has been reported for CS(=O)(=O)c1ccc(-c2nn(-c3ccc(S(N)(=O)=O)cc3)cc2C(=O)NNC(N)=S)cc1 [Compound 9e] ?
Result block: < 5%

Query block: I am curious: what inhibition at 10 µM value has been reported for COc1ccc(-c2nn(-c3ccc(S(N)(=O)=O)cc3)cc2C(=O)OCC(=O)Nc2nnc(S(N)(=O)=O)s2)cc1 [Compound 6c] ?
Result block: < 5%
